Reference source: paper PMC8359310

- Experimental Protocol: Clinical DDI study: plasma pharmacokinetics of probe drugs
- Particulars: human, in vivo, AUClast, geo‐mean (geo‐CV%), probe drug + capmatinib 400 mg twice daily, Day 22, plasma
Property Measured: AUC(0-t) (µg·h/mL)

P: CC(C)c1nc(N(C)S(C)(=O)=O)nc(-c2ccc(F)cc2)c1/C=C/[C@@H](O)C[C@@H](O)CC(=O)O [rosuvastatin]
Q: C[C@H]1O[C@@H](O[C@H]2[C@@H](O)C[C@H](O[C@H]3[C@@H](O)C[C@H](O[C@H]4CC[C@@]5(C)[C@H](CC[C@@H]6[C@@H]5C[C@@H](O)[C@]5(C)[C@@H](C7=CC(=O)OC7)CC[C@]65O)C4)O[C@@H]3C)O[C@@H]2C)C[C@H](O)[C@@H]1O [digoxin]
Prompt: Lab notebook, comparison: P versus Q , higher AUC(0-t) goes to which? Identify your selection by its label.
Response: P

----------
- Experimental Protocol: Clinical DDI study: plasma pharmacokinetics of probe drugs
- Particulars: human, in vivo, Tmax, median (min, max), probe drug alone, Day 1
Property Measured: Tmax (h)

a: C[C@H]1O[C@@H](O[C@H]2[C@@H](O)C[C@H](O[C@H]3[C@@H](O)C[C@H](O[C@H]4CC[C@@]5(C)[C@H](CC[C@@H]6[C@@H]5C[C@@H](O)[C@]5(C)[C@@H](C7=CC(=O)OC7)CC[C@]65O)C4)O[C@@H]3C)O[C@@H]2C)C[C@H](O)[C@@H]1O [digoxin]
b: CC(C)c1nc(N(C)S(C)(=O)=O)nc(-c2ccc(F)cc2)c1/C=C/[C@@H](O)C[C@@H](O)CC(=O)O [rosuvastatin]
Prompt: Identify the entry with the smaller Tmax: a or b . Identify your selection by its label.
Response: a

----------
- Experimental Protocol: Clinical DDI study: plasma pharmacokinetics of probe drugs
- Particulars: human, in vivo, Cmax, geo‐mean (geo‐CV%), probe drug + capmatinib 400 mg twice daily, Day 22, plasma
Property Measured: Cmax (ng/mL)
The reply should be a number in ng/mL, with the unit left off.

CC(C)c1nc(N(C)S(C)(=O)=O)nc(-c2ccc(F)cc2)c1/C=C/[C@@H](O)C[C@@H](O)CC(=O)O [rosuvastatin] has a reported Cmax of 23.5

----------
- Experimental Protocol: Clinical DDI study: plasma pharmacokinetics of probe drugs
- Particulars: human, in vivo, AUCinf, adjusted geo‐mean, probe drug + capmatinib; linear mixed effects model
Property Measured: AUC(0-inf) (ng·h/mL)

a: C[C@H]1O[C@@H](O[C@H]2[C@@H](O)C[C@H](O[C@H]3[C@@H](O)C[C@H](O[C@H]4CC[C@@]5(C)[C@H](CC[C@@H]6[C@@H]5C[C@@H](O)[C@]5(C)[C@@H](C7=CC(=O)OC7)CC[C@]65O)C4)O[C@@H]3C)O[C@@H]2C)C[C@H](O)[C@@H]1O
b: CC(C)c1nc(N(C)S(C)(=O)=O)nc(-c2ccc(F)cc2)c1/C=C/[C@@H](O)C[C@@H](O)CC(=O)O
Prompt: Lab notebook, comparison: a versus b , higher AUC(0-inf) goes to which? Identify your selection by its label.
Response: b

----------
- Experimental Protocol: Clinical DDI study: plasma pharmacokinetics of probe drugs
- Particulars: human, in vivo, T1/2, geo‐mean (geo‐CV%), probe drug alone, Day 1
Property Measured: half-life (h)

a: CC(C)c1nc(N(C)S(C)(=O)=O)nc(-c2ccc(F)cc2)c1/C=C/[C@@H](O)C[C@@H](O)CC(=O)O [rosuvastatin]
b: C[C@H]1O[C@@H](O[C@H]2[C@@H](O)C[C@H](O[C@H]3[C@@H](O)C[C@H](O[C@H]4CC[C@@]5(C)[C@H](CC[C@@H]6[C@@H]5C[C@@H](O)[C@]5(C)[C@@H](C7=CC(=O)OC7)CC[C@]65O)C4)O[C@@H]3C)O[C@@H]2C)C[C@H](O)[C@@H]1O [digoxin]
Prompt: Lab notebook, comparison: a versus b , higher half-life goes to which? Identify your selection by its label.
Response: b

----------
- Experimental Protocol: Clinical DDI study: plasma pharmacokinetics of probe drugs
- Particulars: human, in vivo, Tmax, median (min, max), probe drug + capmatinib 400 mg twice daily, Day 22
Property Measured: Tmax (h)
The reply should be a number in h, with the unit left off.

CC(C)c1nc(N(C)S(C)(=O)=O)nc(-c2ccc(F)cc2)c1/C=C/[C@@H](O)C[C@@H](O)CC(=O)O has a reported Tmax of 1.55

----------
- Experimental Protocol: Clinical DDI study: plasma pharmacokinetics of probe drugs
- Particulars: human, in vivo, AUClast, adjusted geo‐mean, probe drug alone; linear mixed effects model
Property Measured: AUC(0-t) (ng·h/mL)

1: CC(C)c1nc(N(C)S(C)(=O)=O)nc(-c2ccc(F)cc2)c1/C=C/[C@@H](O)C[C@@H](O)CC(=O)O
2: C[C@H]1O[C@@H](O[C@H]2[C@@H](O)C[C@H](O[C@H]3[C@@H](O)C[C@H](O[C@H]4CC[C@@]5(C)[C@H](CC[C@@H]6[C@@H]5C[C@@H](O)[C@]5(C)[C@@H](C7=CC(=O)OC7)CC[C@]65O)C4)O[C@@H]3C)O[C@@H]2C)C[C@H](O)[C@@H]1O
Prompt: Identify the entry with the smaller AUC(0-t): 1 or 2 . Identify your selection by its label.
Response: 2
(2: 14.6 ng·h/mL, 1: 71 ng·h/mL)

----------
- Experimental Protocol: Clinical DDI study: plasma pharmacokinetics of probe drugs
- Particulars: human, in vivo, Cmax, geo‐mean (geo‐CV%), probe drug alone, Day 1, plasma
Property Measured: Cmax (ng/mL)

a: CC(C)c1nc(N(C)S(C)(=O)=O)nc(-c2ccc(F)cc2)c1/C=C/[C@@H](O)C[C@@H](O)CC(=O)O
b: C[C@H]1O[C@@H](O[C@H]2[C@@H](O)C[C@H](O[C@H]3[C@@H](O)C[C@H](O[C@H]4CC[C@@]5(C)[C@H](CC[C@@H]6[C@@H]5C[C@@H](O)[C@]5(C)[C@@H](C7=CC(=O)OC7)CC[C@]65O)C4)O[C@@H]3C)O[C@@H]2C)C[C@H](O)[C@@H]1O
Prompt: Lab notebook, comparison: a versus b , higher Cmax goes to which? Identify your selection by its label.
Response: a
(a: 7.72 ng/mL, b: 1.12 ng/mL)

----------
- Experimental Protocol: Capmatinib plasma concentrations in DDI and post‐DDI phase
- Assay type: in vivo, human
- Particulars: human, oral, 400 mg twice daily
Property Measured: concentration at 2 h (ng/mL)
The reply should be a number in ng/mL, with the unit left off.

CNC(=O)c1ccc(-c2cnc3ncc(Cc4ccc5ncccc5c4)n3n2)cc1F has a reported concentration at 2 h of 3960

----------
- Experimental Protocol: Clinical DDI study: plasma pharmacokinetics of probe drugs
- Particulars: human, in vivo, AUClast, adjusted geo‐mean, probe drug + capmatinib; linear mixed effects model
Property Measured: AUC(0-t) (ng·h/mL)

P: CC(C)c1nc(N(C)S(C)(=O)=O)nc(-c2ccc(F)cc2)c1/C=C/[C@@H](O)C[C@@H](O)CC(=O)O
Q: C[C@H]1O[C@@H](O[C@H]2[C@@H](O)C[C@H](O[C@H]3[C@@H](O)C[C@H](O[C@H]4CC[C@@]5(C)[C@H](CC[C@@H]6[C@@H]5C[C@@H](O)[C@]5(C)[C@@H](C7=CC(=O)OC7)CC[C@]65O)C4)O[C@@H]3C)O[C@@H]2C)C[C@H](O)[C@@H]1O
Prompt: Identify the entry with the smaller AUC(0-t): P or Q . Identify your selection by its label.
Response: Q
